# METHOD DESCRIPTION: in vitro
# Format: in vitro ADME
# PARTICULARS: rat, microsomes
Record form. Attribute: half-life. Fill in for each entry.
Give bare numbers, in min.

For each entry beneath this line, provide reported half-life.
1. COc1ccc(C)c(-c2cc(=O)[nH]c(Nc3ccccc3)n2)c1
2. COc1cc(-c2cc(=O)[nH]c(Nc3ccc(Cl)c(O)c3)n2)ccn1

4.7
14.1

Endpoint output: half-life of COc1cccc(-c2cc(=O)[nH]c(Nc3cccc(O)c3)n2)c1 . Value?
4.4

###

# METHOD DESCRIPTION: in vitro
# Type: in vitro ADME
# PARTICULARS: rat, microsomes
# Procedure: Additionally, an initial absorption, distribution, metabolism, and excretion (ADME) profile of the compound series was performed (Table 4).
TEST READOUT: half-life (min)
Give bare numbers, in min.

# count of solved cases: 2
- ENTRY SMILES: "COc1cccc(-c2cc(=O)[nH]c(Nc3ccccc3)n2)n1"
  half-life, min: 3.9
- ENTRY SMILES: "COc1cccc(-c2cc(=O)[nH]c(Nc3ccnc(N)c3)n2)c1"
  half-life, min: 3.8

Okay, next one:
Reported half-life for COc1cc(-c2cc(=O)[nH]c(Nc3ccccc3)n2)ccn1 : what is it?
9.4
